# target.desc: T1, PSMA Fab
# T1 construct: also called 006 PSMA Fab; anti-PSMA Fab
# protocol.notes: BLI (Octet); PSMA Fab on sensor-loaded biotinylated peptide, 1:1 model
measured.quantity: Off rate t1/2 (min)
The figure you give is taken to be in min; do not add the unit.

- binder: "VEKVCKPVWMCVGF (From the Peptide-180 optimisation phage library) [Peptide-268]"
  Off rate t1/2 / min: 3
- binder: "TVAYCKPAWMCQGF (From the Peptide-180 optimisation phage library) [Peptide-283]"
  Off rate t1/2 / min: 1.4
- binder: "VLKYCIPDWMCAGI (From the Peptide-180 optimisation phage library) [Peptide-286]"
  Off rate t1/2 / min: 3.3
- binder: "ESRLCVPAWMCAGF (From the Peptide-180 optimisation phage library) [Peptide-270]"
  Off rate t1/2 / min: 1.4
- binder: "TEVRCTPPWMCLGF (From the Peptide-180 optimisation phage library) [Peptide-284]"
  Off rate t1/2 / min: 1.4

Field: next binder
In: Using the record for EDILCKPKWMCEGF (From the Peptide-180 optimisation phage library) [Peptide-271] , report its Off rate t1/2.
Out: 3.3
